In this section, each of the compounds is paired with its reported viscosity.
# assay-context: 303.15 K; 101 kPa
Answer in mPa·s, number only, no unit symbol.

These recorded examples may help you get a feel for the data.
compound	viscosity / mPa·s
CC(O)CN(C)C (centres undefined)	1.221
CN(C)CCCO	4.933
CCCCCCCC[n+]1ccn(C)c1.F[B-](F)(F)F	257.5

[in] Entry under review: CC1CCCCC1=O (centres undefined) . Reported viscosity?
[out] 2.225

====

# assay-procedure: xn = mol fraction of the nth substance listed
# assay-context: 308.15 K; 101 kPa; x2 = 0.45
measured-property: viscosity (mPa·s)
The figure you give is taken to be in mPa·s; do not add the unit.

compound	viscosity, mPa·s
CCCCCCCCCO + CCCCO	4.177
CCCCCCCCCO + CCO	3.759
CCCCCCCCCO + CO	3.242

[in] // lookup viscosity for CCCCCCCCCO + CCCO
[out] 4.026

====

# assay-procedure: xn = mol fraction of the nth substance listed
# assay-context: 308.15 K; 101 kPa; x2 = 0.5
± gives the uncertainty stated by the source.
measured-property: viscosity
The answer consists of two parts: a number and, after it, its unit.

[in] Any idea what viscosity was measured for CCCCCCCCCO + CCCCO ?
[out] 3.957 ± 0.037 mPa·s

[in] Would you kindly repeat that for CCCCCCCCCO + CCCO ?
[out] 3.774 ± 0.035 mPa·s

[in] Note, next up: CCCCCCCCCO + CO
[out] 2.916 ± 0.026 mPa·s

[in] Same again, this time with CCCCCCCCCO + CCO
[out] 3.469 ± 0.032 mPa·s

====

Here the recorded viscosity is given for each entry.
# assay-procedure: xn = mol fraction of the nth substance listed
# assay-context: 308.15 K; 101 kPa; x2 = 0.3
Answer format: numeric, mPa·s implied, no suffix.

Known viscosity results, listed for orientation:
molecule	unit-text	viscosity
CCCCCCCCCO + CCO	mPa·s	4.645
CCCCCCCCCO + CCCO	mPa·s	4.806
CCCCCCCCCO + CO	mPa·s	4.281

[in] Suppose we examine the molecule CCCCCCCCCO + CCCCO ; what viscosity value has been reported?
[out] 4.852

====

# assay-procedure: xn = mol fraction of the nth substance listed
# assay-context: 318.15 K; 101 kPa; x2 = 0.55
Entries and their measured viscosity follow.
The figure you give is taken to be in mPa·s; do not add the unit.

Examples with their reported viscosity follow.
compound	viscosity / mPa·s
CCCCCCCCCO + CCCO	2.691
CCCCCCCCCO + CCCCO	2.774
CCCCCCCCCO + CCO	2.465

We now examine a further compound.
[in] viscosity lookup needed for CCCCCCCCCO + CO , thanks.
[out] 2.063

====

Listing: viscosity of selected compounds
# assay-procedure: xn = mol fraction of the nth substance listed
# assay-context: 318.15 K; 101 kPa; x2 = 0.1
Number only, in mPa·s; omit the unit.

compound	viscosity (mPa·s)
CCCCCCCCCO + CCCCO	4.303
CCCCCCCCCO + CO	4.2
CCCCCCCCCO + CCO	4.273

[in] Please look up its viscosity: CCCCCCCCCO + CCCO
[out] 4.293

====

Listed here are compounds together with their documented viscosity.
# assay-procedure: xn = mol fraction of the nth substance listed
# assay-context: 308.15 K; 101 kPa; x2 = 0.15
Expressed in mPa·s, but write only the number.

Answered cases to consult:
compound	measured-property	observed-measurement
CCCCCCCCCO + CCCO	viscosity	5.632
CCCCCCCCCO + CCO	viscosity	5.558
CCCCCCCCCO + CCCCO	viscosity	5.598

Okay, next one:
[in] Would you kindly share the measured viscosity for CCCCCCCCCO + CO ?
[out] 5.387

====

# assay-procedure: xn = mol fraction of the nth substance listed
# assay-context: 318.15 K; 101 kPa; x2 = 0.95
measured-property: viscosity (mPa·s)
Answer format: numeric, mPa·s implied, no suffix.

Field: example entries. Status: answers known.
molecule	observed-measurement
CCCCCCCCCO + CO	0.508
CCCCCCCCCO + CCO	0.9197
CCCCCCCCCO + CCCO	1.354

Now look at this one.
[in] Quick check: viscosity of CCCCCCCCCO + CCCCO ?
[out] 1.681

====

# assay-procedure: xn = mol fraction of the nth substance listed
# assay-context: 298.15 K; 101 kPa; x2 = 0.05
measured-property: viscosity (mPa·s)
Reply numerically in mPa·s, unit not repeated.

Known viscosity results, listed for orientation:
compound	unit-text	viscosity
CCCCCCCCCO + CCO	mPa·s	8.632
CCCCCCCCCO + CCCO	mPa·s	8.682

[in] What does the record list as viscosity for CCCCCCCCCO + CCCCO ?
[out] 8.644

[in] Next record, please: CCCCCCCCCO + CO
[out] 8.515

====

# assay-procedure: xn = mol fraction of the nth substance listed
# assay-context: 318.15 K; 101 kPa; x2 = 0.15
Recorded viscosity, one value per entry.
Entry rule: numbers only, all in mPa·s.

Example results:
compound	observed-measurement
CCCCCCCCCO + CO	3.958
CCCCCCCCCO + CCO	4.073
CCCCCCCCCO + CCCO	4.11

Switching to the query record.
[in] Look up viscosity: CCCCCCCCCO + CCCCO
[out] 4.121

====

# assay-procedure: xn = mol fraction of the nth substance listed
# assay-context: 308.15 K; 101 kPa; x2 = 0.65
measured-property: viscosity (mPa·s)
Your answer is read as mPa·s, so omit the unit and give the number.

Record excerpt, results attached:
molecule	unit-text	observed-measurement
CCCCCCCCCO + CO	mPa·s	2.016
CCCCCCCCCO + CCCO	mPa·s	3.037
CCCCCCCCCO + CCCCO	mPa·s	3.303

We next turn to a different molecule, shown below.
[in] For CCCCCCCCCO + CCO , what is its reported viscosity?
[out] 2.619

====

Reported viscosity is given for each of the following molecules.
# assay-procedure: xn = mol fraction of the nth substance listed
# assay-context: 308.15 K; 101 kPa; x2 = 0.75
± gives the uncertainty stated by the source.

[in] Fill in the blank: the reported viscosity of CCCCCCCCCO + CO is ____.
[out] 1.488 ± 0.013 mPa·s

====

# assay-procedure: xn = mol fraction of the nth substance listed
# assay-context: 318.15 K; 101 kPa; x2 = 0.25
± gives the uncertainty stated by the source.
Recorded measurements of viscosity, one per entry

The following compounds have reported results that may help.
compound	viscosity
CCCCCCCCCO + CCCCO	3.764 ± 0.035 mPa·s
CCCCCCCCCO + CCO	3.675 ± 0.034 mPa·s
CCCCCCCCCO + CO	3.474 ± 0.031 mPa·s

[in] For the compound CCCCCCCCCO + CCCO , what viscosity is on record?
[out] 3.752 ± 0.035 mPa·s

====

# assay-procedure: xn = mol fraction of the nth substance listed
# assay-context: 298.15 K; 101 kPa; x2 = 0.5
± gives the uncertainty stated by the source.
measured-property: viscosity
Write the numeric value and append its unit.

compound	observed-measurement
CCOC(=O)c1cccc(O)c1 + CCCCCOC(C)=O	1.587 ± 0.016 mPa·s
CCCCCCCCCO + CCCCO	5.353 ± 0.051 mPa·s
CCCCCCCCCO + CCO	4.593 ± 0.043 mPa·s
CCCCCCCCCO + CO	3.754 ± 0.034 mPa·s

[in] I'd like to know its viscosity. The compound in question is CCCCCCCCCO + CCCO
[out] 5.073 ± 0.049 mPa·s

====

# assay-procedure: xn = mol fraction of the nth substance listed
# assay-context: 318.15 K; 101 kPa; x2 = 0.3
measured-property: viscosity (mPa·s)
The figure you give is taken to be in mPa·s; do not add the unit.

[in] Entry under review: CCCCCCCCCO + CO . Reported viscosity?
[out] 3.233

[in] Same lookup for CCCCCCCCCO + CCO , please.
[out] 3.475

[in] CCCCCCCCCO + CCCCO ?
[out] 3.589

[in] Then what about the compound CCCCCCCCCO + CCCO ?
[out] 3.575

====

Measured viscosity of individual entries
# assay-procedure: xn = mol fraction of the nth substance listed
# assay-context: 298.15 K; 101 kPa; x2 = 0.95
Unit mPa·s implied. Number only.

Completed entries (count: 3):
molecule	unit-text	viscosity
CCCCCCCCCO + CCO	mPa·s	1.346
CCCCCCCCCO + CCCO	mPa·s	2.12
CCCCCCCCCO + CO	mPa·s	0.7342

[in] Given the entry CCCCCCCCCO + CCCCO , report its measured viscosity.
[out] 2.742
